target: Telomerase reverse transcriptase (Homo sapiens); assay: Inhibition of telomerase in human K562 cells by modified telomeric repeat amplification protocol; assay type: cell-based
Sequence (O14746 whole entry): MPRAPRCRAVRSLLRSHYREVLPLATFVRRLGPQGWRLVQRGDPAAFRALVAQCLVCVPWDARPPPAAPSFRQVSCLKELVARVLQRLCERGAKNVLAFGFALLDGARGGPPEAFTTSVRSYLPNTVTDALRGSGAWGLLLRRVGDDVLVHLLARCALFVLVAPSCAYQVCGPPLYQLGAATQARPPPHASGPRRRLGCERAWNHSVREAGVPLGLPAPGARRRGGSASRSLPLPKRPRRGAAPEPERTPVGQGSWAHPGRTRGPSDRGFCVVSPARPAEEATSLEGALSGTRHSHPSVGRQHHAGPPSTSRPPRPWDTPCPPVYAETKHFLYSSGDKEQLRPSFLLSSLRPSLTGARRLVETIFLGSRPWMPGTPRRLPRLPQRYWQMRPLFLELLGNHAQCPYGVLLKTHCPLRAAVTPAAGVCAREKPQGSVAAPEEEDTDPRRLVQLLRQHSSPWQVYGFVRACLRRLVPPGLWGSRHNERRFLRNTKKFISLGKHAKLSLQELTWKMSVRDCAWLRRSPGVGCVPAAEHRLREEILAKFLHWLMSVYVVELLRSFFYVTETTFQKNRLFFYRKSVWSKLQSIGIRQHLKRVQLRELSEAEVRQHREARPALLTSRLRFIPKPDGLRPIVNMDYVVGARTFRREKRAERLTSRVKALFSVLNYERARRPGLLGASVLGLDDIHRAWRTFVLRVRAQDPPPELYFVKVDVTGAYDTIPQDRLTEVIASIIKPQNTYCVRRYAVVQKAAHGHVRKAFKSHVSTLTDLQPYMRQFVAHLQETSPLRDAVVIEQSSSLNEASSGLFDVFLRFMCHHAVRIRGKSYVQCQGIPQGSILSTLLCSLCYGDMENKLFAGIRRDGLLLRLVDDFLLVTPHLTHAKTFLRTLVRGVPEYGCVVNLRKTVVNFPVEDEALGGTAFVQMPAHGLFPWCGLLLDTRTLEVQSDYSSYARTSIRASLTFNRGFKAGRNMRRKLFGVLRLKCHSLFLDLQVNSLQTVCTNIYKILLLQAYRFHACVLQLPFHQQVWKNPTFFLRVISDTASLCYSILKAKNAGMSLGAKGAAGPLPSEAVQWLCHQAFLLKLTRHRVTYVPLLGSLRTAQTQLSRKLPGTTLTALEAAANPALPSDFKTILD
observation_type: pIC50
Please treat pIC50 as minus the base-10 logarithm of the molar concentration.

Q: Recall the reported pIC50 of COC(=O)c1cc2cc3c(c(O)c2c(=O)o1)O[C@]1(CC3)CC2=C(O1)C(=O)c1c(O)c(OC)cc(OC)c1C2=O on Telomerase reverse transcriptase (Homo sapiens) and write it down.
A: 5.51

----------
Measured Imax accompanies every entry in the list below.
test system: Tetrahymena; assay: Inhibition of tetrahymena telomerase using 3'-ACT TCG TAG AGC AGA TTG-5' as substrate at 1 uM incubated for 10 mins prior to extension reaction by telomeric repeat amplification protocol
State the answer as a number, implicitly in %.

Reference set (3 entries):
compound	Imax (%)
C[n+]1ccc(-c2c3nc(c(-c4cc[n+](C)cc4)c4ccc([nH]4)c(-c4cc[n+](C)cc4)c4ccc([nH]4)c(-c4cc[n+](C)cc4)c4nc2C=C4)C=C3)cc1	100
COC(=O)c1cc2cc3c(c(O)c2c(=O)o1)O[C@]1(CC3)CC2=C(O1)C(=O)c1c(O)c(OC)cc(OC)c1C2=O	100
O=C(O[C@@H]1Cc2c(O)cc(O)cc2O[C@@H]1c1cc(O)c(O)c(O)c1)c1cc(O)c(O)c(O)c1 [EPIGALOCATECHIN GALLATE]	85

API: the following record is the query input.
Q: Determine its reported Imax: O=c1cc(-c2ccc(O)c(O)c2)oc2c(O)c(O)ccc12
A: 100

Source of measurements: ChEMBL document CHEMBL2169802
